Sourced from the supplement of paper PMC11246515

# Test Details: total protein half-life in vivo (active degradation + dilution); higher = more stable protein
# Measurement Context: wild type E. coli NCM3722; growth: C-lim chemostat; doubling time 3 h
Parameter threshold = 3 h. Response is y when total protein half-life in vivo meets or exceeds it, else n.

MTIKNVICDIDGVLMHDNVAVPGAAEFLHGIMDKGLPLVLLTNYPSQTGQDLANRFATAGVDVPDSVFYTSAMATADFLRRQEGKKAYVVGEGALIHELYKAGFTITDVNPDFVIVGETRSYNWDMMHKAAYFVANGARFIATNPDTHGRGFYPACGALCAGIEKISGRKPFYVGKPSPWIIRAALNKMQAHSEETVIVGDNLRTDILAGFQAGLETILVLSGVSSLDDIDSMPFRPSWIYPSVAEIDVI [P0AF24] :: y
MRKQWLGICIAAGMLAACTSDDGQQQTVSVPQPAVCNGPIVEISGADPRFEPLNATANQDYQRDGKSYKIVQDPSRFSQAGLAAIYDAEPGSNLTASGEAFDPTQLTAAHPTLPIPSYARITNLANGRMIVVRINDRGPYGNDRVISLSRAAADRLNTSNNTKVRIDPIIVAQDGSLSGPGMACTTVAKQTYALPAPPDLSGGAGTSSVSGPQGDILPVSNSTLKSEDPTGAPVTSSGFLGAPTTLAPGVLEGSEPTPAPQPVVTAPSTTPATSPAMVTPQAVSQSASGNFMVQVGAVSDQARAQQYQQQLGQKFGVPGRVTQNGAVWRIQLGPFASKAEASTLQQRLQTEAQLQSFITTAQ :: y

Q: Determine whether measured total protein half-life in vivo meets or exceeds 3 h for MAQRVQLTATVSENQLGQRLDQALAEMFPDYSRSRIKEWILDQRVLVNGKVCDKPKEKVLGGEQVAINAEIEEEARFEPQDIPLDIVYEDEDIIIINKPRDLVVHPGAGNPDGTVLNALLHYYPPIADVPRAGIVHRLDKDTTGLMVVAKTVPAQTRLVESLQRREITREYEAVAIGHMTAGGTVDEPISRHPTKRTHMAVHPMGKPAVTHYRIMEHFRVHTRLRLRLETGRTHQIRVHMAHITHPLVGDPVYGGRPRPPKGASEAFISTLRKFDRQALHATMLRLYHPISGIEMEWHAPIPQDMVELIEVMRADFEEHKDEVDWL
Result: y

Q: Determine whether measured total protein half-life in vivo meets or exceeds 3 h for MTMNITSKQMEITPAIRQHVADRLAKLEKWQTHLINPHIILSKEPQGFVADATINTPNGVLVASGKHEDMYTAINELINKLERQLNKLQHKGEARRAATSVKDANFVEEVEEE [P0AD49]
Result: n

Q: Determine whether measured total protein half-life in vivo meets or exceeds 3 h for MSRPTIIINDLDAERIDILLEQPAYAGLPIADALNAELDRAQMCSPEEMPHDVVTMNSRVKFRNLSDGEVRVRTLVYPAKMTDSNTQLSVMAPVGAALLGLRVGDSIHWELPGGVATHLEVLELEYQPEAAGDYLL [P0AFW4]
Result: n
